Reference source for all entries: patent US20230176070A1

Item-by-item account of log10 Kd
Target: T1, human serum albumin (human, UniProt P02768 25-609)
T1 construct: In the mutant screen wild type HSA came from medium of transfected HeLa cells; also called HSA; wild type HSA
T1 sequence (P02768 25-609 limits assumed): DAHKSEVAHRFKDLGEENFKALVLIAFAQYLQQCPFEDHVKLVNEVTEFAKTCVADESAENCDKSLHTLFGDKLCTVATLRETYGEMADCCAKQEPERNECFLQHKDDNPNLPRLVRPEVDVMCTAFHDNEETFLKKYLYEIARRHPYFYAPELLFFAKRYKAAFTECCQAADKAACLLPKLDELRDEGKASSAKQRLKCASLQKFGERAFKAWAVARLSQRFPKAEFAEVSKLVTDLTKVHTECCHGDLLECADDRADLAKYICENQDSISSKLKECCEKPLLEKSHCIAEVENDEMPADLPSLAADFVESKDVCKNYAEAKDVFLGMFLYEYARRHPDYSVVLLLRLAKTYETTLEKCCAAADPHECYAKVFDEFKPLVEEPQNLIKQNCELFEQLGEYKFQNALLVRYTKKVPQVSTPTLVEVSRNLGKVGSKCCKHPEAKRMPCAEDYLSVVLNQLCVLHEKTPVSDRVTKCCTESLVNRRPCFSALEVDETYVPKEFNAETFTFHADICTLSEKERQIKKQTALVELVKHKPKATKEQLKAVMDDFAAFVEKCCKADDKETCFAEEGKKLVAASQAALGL
Test: SPR, HSA immobilised;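 further: nanobody analytes injected as dilution series across three log units over CM5 chip with amine-coupled antigen, kinetics fitted by 1:1 Langmuir model, optionally with mass transfer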
For clarity, the numbers are log10 values of Kd expressed in nM.

Examples with their reported log10 Kd follow.
- H7 (VHH) VHH: DVQLVESGGGSVQAGGSLRLSCAASGGTFSSYAMGWYRQAPGKEREFVSGISWSGSSIDYVDSVKGRFTISRDNAKNTVYLQMNSLKPEDTAVYYCGAADPMGLGYGLGPRPVDRLLSAECDYWGQGTQVTVSS: 0.04
- H30 (VHH) VHH: HVQLVESGGGLAQAGGSLRLSCAASGGTFSNSCMGWFRQAPGMEREFVAIIRSTGHTTYADSVEGRFTVSRDIAKNTVYLEMNSLKPEDTAVYSCVAGVSDYGCYRTSGIKYWGQGTQVTVSS: -0.79
- H16 (VHH) VHH: QVQLVESGGGLVQTGGSLTLSCAASGRTFSTKSMGWFRQAPGKEREFVADINWNGGITHYADSVEGRFTISRDNANDMVYLQMNSLKPEDTAVYYCAGGRYSTLFSKSEADYDYWGQGTQVTVSS: -1.06

Please find the next binder below.
Memo: H28 (VHH, also called N28) VHH: DVQLVESGGGLAQAGGSLRLSCAASGRTFSNECMGWFRQAPGKEREFVATIRSTGHISYATSVQGRFTVSRDIAKNTVYLEMNNLKPEDTAVYSCGAGVSDYGCYRTSGYNYWGQGTQVTVSS , reported log10 Kd: 0.22
